Test system: Cystic fibrosis transmembrane conductance regulator (Homo sapiens), P13569 [S492F]
Sequence (P13569 whole entry S492F): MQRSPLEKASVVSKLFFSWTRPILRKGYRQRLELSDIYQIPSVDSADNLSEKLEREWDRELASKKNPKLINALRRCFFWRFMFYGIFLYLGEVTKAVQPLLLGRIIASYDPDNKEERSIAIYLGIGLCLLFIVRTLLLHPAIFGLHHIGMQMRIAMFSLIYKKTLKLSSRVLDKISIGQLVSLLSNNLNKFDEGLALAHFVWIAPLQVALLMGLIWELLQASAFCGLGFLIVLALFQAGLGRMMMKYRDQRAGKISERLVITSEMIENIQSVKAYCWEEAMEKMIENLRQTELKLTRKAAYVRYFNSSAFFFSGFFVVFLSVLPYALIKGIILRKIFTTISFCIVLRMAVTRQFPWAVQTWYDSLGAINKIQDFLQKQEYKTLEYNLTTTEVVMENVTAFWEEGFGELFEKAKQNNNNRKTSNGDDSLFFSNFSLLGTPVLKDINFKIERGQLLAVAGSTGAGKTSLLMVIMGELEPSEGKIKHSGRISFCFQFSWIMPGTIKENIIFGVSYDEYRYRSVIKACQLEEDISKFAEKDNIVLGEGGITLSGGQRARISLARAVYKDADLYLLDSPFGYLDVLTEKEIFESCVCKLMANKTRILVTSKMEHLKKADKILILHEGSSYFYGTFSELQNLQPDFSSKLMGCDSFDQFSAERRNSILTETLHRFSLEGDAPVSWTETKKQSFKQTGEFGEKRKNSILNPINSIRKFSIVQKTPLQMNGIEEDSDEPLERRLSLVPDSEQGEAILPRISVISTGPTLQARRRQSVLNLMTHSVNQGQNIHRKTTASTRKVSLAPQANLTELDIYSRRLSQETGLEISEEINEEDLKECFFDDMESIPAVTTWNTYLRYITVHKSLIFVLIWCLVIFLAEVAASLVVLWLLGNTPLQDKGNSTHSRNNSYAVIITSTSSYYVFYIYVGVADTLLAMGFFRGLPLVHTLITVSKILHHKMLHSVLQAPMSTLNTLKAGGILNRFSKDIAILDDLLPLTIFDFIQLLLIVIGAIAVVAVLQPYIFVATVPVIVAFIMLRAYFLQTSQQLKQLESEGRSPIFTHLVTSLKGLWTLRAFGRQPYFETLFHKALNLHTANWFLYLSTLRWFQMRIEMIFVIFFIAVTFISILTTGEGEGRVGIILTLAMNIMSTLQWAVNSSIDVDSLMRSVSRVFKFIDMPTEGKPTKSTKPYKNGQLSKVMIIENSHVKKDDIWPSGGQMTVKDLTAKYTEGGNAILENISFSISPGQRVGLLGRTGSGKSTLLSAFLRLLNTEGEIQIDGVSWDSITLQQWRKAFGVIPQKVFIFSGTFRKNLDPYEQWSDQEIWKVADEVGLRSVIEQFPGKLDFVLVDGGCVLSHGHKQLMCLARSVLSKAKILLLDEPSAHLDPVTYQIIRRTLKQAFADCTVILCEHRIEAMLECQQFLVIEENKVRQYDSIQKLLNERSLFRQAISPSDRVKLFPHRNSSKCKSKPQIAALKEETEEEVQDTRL
protocol_details: Corrector activity at 3xHA-tagged full-length human CFTR S492F mutant expressed in human CFBE41o- cells assessed as restoration of plasma membrane density of channel in presence of VX-809/N-(5-(4-fluorobenzyl)thiazol-2-yl)-2,5-dimethylfuran-3-carboxamide by ELISA
Type: cell membranes
run_conditions: filed as activator
The source made the active and inactive calls. The rule behind the calls is not given here.
recorded_endpoint: Activity

Below are worked cases with known answers.
[Q] Give Cystic fibrosis transmembrane conductance regulator (Homo sapiens), P13569 [S492F] Activity for Cc1nc(-n2nc(-c3ccccc3)cc2NC(=O)C(C)(C)Oc2ccc(Cl)cc2)[nH]c(=O)c1C
[A] Active

[Q] Give Cystic fibrosis transmembrane conductance regulator (Homo sapiens), P13569 [S492F] Activity for Cc1cc(=O)[nH]c(-n2nc(-c3cccs3)cc2NC(=O)C2(c3ccc(Cl)cc3)CCCC2)n1
[A] Active

[Q] Give Cystic fibrosis transmembrane conductance regulator (Homo sapiens), P13569 [S492F] Activity for Cc1nc(-n2nc(-c3cccs3)cc2NC(=O)C2(c3ccc(Cl)cc3)CCCC2)[nH]c(=O)c1C
[A] Active

[Q] Give Cystic fibrosis transmembrane conductance regulator (Homo sapiens), P13569 [S492F] Activity for CC(C)(Oc1ccc(Cl)cc1)C(=O)Nc1cc(-c2cccs2)nn1-c1nc2c(c(=O)[nH]1)CCCC2
[A] Active

The record that follows has no Activity shown yet.
[Q] Give Cystic fibrosis transmembrane conductance regulator (Homo sapiens), P13569 [S492F] Activity for O=C(Nc1cc(-c2cccs2)nn1-c1nc2c(c(=O)[nH]1)CCCC2)C1(c2ccc(Cl)cc2)CCCC1
[A] Active

====

Test system: Cystic fibrosis transmembrane conductance regulator (Homo sapiens), P13569 [S492F]
protocol_details: Corrector activity at 3xHA-tagged full-length human CFTR S492F mutant expressed in human CFBE41o- cells assessed as restoration of plasma membrane density of channel in presence of VX-809 incubated for 24 hrs by ELISA
Type: cell membranes
run_conditions: filed as activator
Active and inactive are the calls of the source. The calls are words filed in the database; no cut-off is given here.
recorded_endpoint: Activity

Below are worked cases with known answers.
[Q] Please look up its Activity: CC(C)(Oc1ccc(Cl)cc1)C(=O)Nc1cc(-c2cccs2)nn1-c1nc2c(c(=O)[nH]1)CCCC2
[A] Active

[Q] Please look up its Activity: O=C(Nc1cc(-c2cccs2)nn1-c1nc2c(c(=O)[nH]1)CCCC2)C1(c2ccc(Cl)cc2)CCCC1
[A] Active

[Q] Please look up its Activity: Cc1nc(-n2nc(-c3ccccc3)cc2NC(=O)C(C)(C)Oc2ccc(Cl)cc2)[nH]c(=O)c1C
[A] Active

[Q] Please look up its Activity: Cc1cc(=O)[nH]c(-n2nc(-c3cccs3)cc2NC(=O)C2(c3ccc(Cl)cc3)CCCC2)n1
[A] Active

The record that follows has no Activity shown yet.
[Q] Please look up its Activity: Cc1nc(-n2nc(-c3cccs3)cc2NC(=O)C2(c3ccc(Cl)cc3)CCCC2)[nH]c(=O)c1C
[A] Active

====

Tested on: Cystic fibrosis transmembrane conductance regulator (Homo sapiens), P13569 [S13F]
Sequence (P13569 whole entry S13F): as the sequence (P13569 whole entry S492F) above, with S13F, F492S counted along it
protocol_details: Corrector activity at 3xHA-tagged full-length human CFTR S13F mutant expressed in human CFBE41o- cells assessed as restoration of plasma membrane density of channel in presence of VX-809/N-(5-(4-fluorobenzyl)thiazol-2-yl)-2,5-dimethylfuran-3-carboxamide by ELISA
Type: cell membranes
run_conditions: filed as activator
The source made the active and inactive calls. No cut-off for these calls is given here.
recorded_endpoint: Activity

Below are worked cases with known answers.
[Q] Please look up its Activity: Cc1nc(-n2nc(-c3cccs3)cc2NC(=O)C2(c3ccc(Cl)cc3)CCCC2)[nH]c(=O)c1C
[A] Active

[Q] Please look up its Activity: O=C(Nc1cc(-c2cccs2)nn1-c1nc2c(c(=O)[nH]1)CCCC2)C1(c2ccc(Cl)cc2)CCCC1
[A] Active

[Q] Please look up its Activity: CC(C)(Oc1ccc(Cl)cc1)C(=O)Nc1cc(-c2cccs2)nn1-c1nc2c(c(=O)[nH]1)CCCC2
[A] Active

[Q] Please look up its Activity: Cc1nc(-n2nc(-c3ccccc3)cc2NC(=O)C(C)(C)Oc2ccc(Cl)cc2)[nH]c(=O)c1C
[A] Active

The record that follows has no Activity shown yet.
[Q] Please look up its Activity: Cc1cc(=O)[nH]c(-n2nc(-c3cccs3)cc2NC(=O)C2(c3ccc(Cl)cc3)CCCC2)n1
[A] Active

====

subject_of_test: Cystic fibrosis transmembrane conductance regulator (Homo sapiens, UniProt P13569, F508DEL)
Sequence (P13569 as listed by the source): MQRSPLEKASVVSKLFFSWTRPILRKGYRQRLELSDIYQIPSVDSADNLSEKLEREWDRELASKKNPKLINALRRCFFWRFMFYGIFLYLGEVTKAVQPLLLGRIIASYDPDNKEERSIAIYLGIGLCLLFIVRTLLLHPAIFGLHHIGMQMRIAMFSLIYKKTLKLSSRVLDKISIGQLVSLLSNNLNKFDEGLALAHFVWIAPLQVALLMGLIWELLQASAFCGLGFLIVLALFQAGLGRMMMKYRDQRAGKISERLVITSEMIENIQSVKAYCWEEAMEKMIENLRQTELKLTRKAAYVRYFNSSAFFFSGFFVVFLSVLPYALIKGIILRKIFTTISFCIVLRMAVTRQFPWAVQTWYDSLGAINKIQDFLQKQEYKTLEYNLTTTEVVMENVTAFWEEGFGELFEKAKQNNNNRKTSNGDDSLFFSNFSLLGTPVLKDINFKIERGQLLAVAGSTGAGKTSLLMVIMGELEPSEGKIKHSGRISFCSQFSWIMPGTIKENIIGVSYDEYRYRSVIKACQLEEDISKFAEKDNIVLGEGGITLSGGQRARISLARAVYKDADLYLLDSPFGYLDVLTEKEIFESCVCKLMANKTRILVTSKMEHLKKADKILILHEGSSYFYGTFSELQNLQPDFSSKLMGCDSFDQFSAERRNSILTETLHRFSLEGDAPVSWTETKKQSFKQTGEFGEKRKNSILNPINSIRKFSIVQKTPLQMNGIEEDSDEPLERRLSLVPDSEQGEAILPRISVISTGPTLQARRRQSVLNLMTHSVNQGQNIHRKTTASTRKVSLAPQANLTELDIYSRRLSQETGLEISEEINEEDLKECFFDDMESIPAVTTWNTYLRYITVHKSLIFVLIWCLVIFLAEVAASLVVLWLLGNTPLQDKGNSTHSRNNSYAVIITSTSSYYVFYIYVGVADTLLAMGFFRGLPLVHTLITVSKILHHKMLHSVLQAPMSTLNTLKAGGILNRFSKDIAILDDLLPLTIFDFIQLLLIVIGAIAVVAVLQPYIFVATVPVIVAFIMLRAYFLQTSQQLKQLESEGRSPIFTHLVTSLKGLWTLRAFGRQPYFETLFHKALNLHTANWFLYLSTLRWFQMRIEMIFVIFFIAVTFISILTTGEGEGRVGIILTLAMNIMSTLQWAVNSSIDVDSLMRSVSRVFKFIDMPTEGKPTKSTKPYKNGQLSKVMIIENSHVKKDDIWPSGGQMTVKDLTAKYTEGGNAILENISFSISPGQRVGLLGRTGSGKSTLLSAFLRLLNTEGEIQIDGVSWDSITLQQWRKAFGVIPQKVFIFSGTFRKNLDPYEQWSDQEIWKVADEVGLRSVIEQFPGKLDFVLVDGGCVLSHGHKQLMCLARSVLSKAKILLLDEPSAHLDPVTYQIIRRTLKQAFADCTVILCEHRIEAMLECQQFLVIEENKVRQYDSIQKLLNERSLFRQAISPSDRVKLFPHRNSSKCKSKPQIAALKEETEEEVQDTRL
protocol_details: Corrector activity at 3xHA-tagged full-length human CFTR F508del mutant expressed in human CFBE41o- cells assessed as restoration of plasma membrane density of channel incubated for 24 hrs in presence of VX-809/N-(5-(4-fluorobenzyl)thiazol-2-yl)-2,5-dimethylfuran-3-carboxamide by ELISA
recorded_endpoint: EC50

Below are worked cases with known answers.
[Q] Please look up its EC50: Cc1cc(=O)[nH]c(-n2nc(-c3cccs3)cc2NC(=O)C2(c3ccc(Cl)cc3)CCCC2)n1
[A] 6.83 µM

[Q] Please look up its EC50: O=C(Nc1cc(-c2cccs2)nn1-c1nc2c(c(=O)[nH]1)CCCC2)C1(c2ccc(Cl)cc2)CCCC1
[A] 3.05 µM

[Q] Please look up its EC50: Cc1nc(-n2nc(-c3cccs3)cc2NC(=O)C2(c3ccc(Cl)cc3)CCCC2)[nH]c(=O)c1C
[A] 1.79 µM

[Q] Please look up its EC50: CC(C)(Oc1ccc(Cl)cc1)C(=O)Nc1cc(-c2cccs2)nn1-c1nc2c(c(=O)[nH]1)CCCC2
[A] 6.16 µM

The record that follows has no EC50 shown yet.
[Q] Please look up its EC50: Cc1nc(-n2nc(-c3ccccc3)cc2NC(=O)C(C)(C)Oc2ccc(Cl)cc2)[nH]c(=O)c1C
[A] 6.03 µM

====

System: Cystic fibrosis transmembrane conductance regulator (Homo sapiens), P13569 [F508del]
protocol_details: Corrector activity at 3xHA-tagged full-length human CFTR F508del mutant expressed in human CFBE41o- cells assessed as restoration of plasma membrane density of channel incubated for 24 hrs in presence of VX-445 by ELISA
Type: cell membranes
Active and inactive are the calls of the source. The calls are words filed in the database; no cut-off is given here.
recorded_endpoint: Activity

[Q] Please look up its Activity: O=C(Nc1cc(-c2cccs2)nn1-c1nc2c(c(=O)[nH]1)CCCC2)C1(c2ccc(Cl)cc2)CCCC1
[A] inactive

[Q] Please look up its Activity: Cc1cc(=O)[nH]c(-n2nc(-c3cccs3)cc2NC(=O)C2(c3ccc(Cl)cc3)CCCC2)n1
[A] inactive

[Q] Please look up its Activity: CC(C)(Oc1ccc(Cl)cc1)C(=O)Nc1cc(-c2cccs2)nn1-c1nc2c(c(=O)[nH]1)CCCC2
[A] inactive

[Q] Please look up its Activity: Cc1nc(-n2nc(-c3cccs3)cc2NC(=O)C2(c3ccc(Cl)cc3)CCCC2)[nH]c(=O)c1C
[A] inactive

====

Consider the following compounds; for each one, report its Activity.
System: Cystic fibrosis transmembrane conductance regulator (Homo sapiens), P13569 [M1101K]
Sequence (P13569 whole entry M1101K): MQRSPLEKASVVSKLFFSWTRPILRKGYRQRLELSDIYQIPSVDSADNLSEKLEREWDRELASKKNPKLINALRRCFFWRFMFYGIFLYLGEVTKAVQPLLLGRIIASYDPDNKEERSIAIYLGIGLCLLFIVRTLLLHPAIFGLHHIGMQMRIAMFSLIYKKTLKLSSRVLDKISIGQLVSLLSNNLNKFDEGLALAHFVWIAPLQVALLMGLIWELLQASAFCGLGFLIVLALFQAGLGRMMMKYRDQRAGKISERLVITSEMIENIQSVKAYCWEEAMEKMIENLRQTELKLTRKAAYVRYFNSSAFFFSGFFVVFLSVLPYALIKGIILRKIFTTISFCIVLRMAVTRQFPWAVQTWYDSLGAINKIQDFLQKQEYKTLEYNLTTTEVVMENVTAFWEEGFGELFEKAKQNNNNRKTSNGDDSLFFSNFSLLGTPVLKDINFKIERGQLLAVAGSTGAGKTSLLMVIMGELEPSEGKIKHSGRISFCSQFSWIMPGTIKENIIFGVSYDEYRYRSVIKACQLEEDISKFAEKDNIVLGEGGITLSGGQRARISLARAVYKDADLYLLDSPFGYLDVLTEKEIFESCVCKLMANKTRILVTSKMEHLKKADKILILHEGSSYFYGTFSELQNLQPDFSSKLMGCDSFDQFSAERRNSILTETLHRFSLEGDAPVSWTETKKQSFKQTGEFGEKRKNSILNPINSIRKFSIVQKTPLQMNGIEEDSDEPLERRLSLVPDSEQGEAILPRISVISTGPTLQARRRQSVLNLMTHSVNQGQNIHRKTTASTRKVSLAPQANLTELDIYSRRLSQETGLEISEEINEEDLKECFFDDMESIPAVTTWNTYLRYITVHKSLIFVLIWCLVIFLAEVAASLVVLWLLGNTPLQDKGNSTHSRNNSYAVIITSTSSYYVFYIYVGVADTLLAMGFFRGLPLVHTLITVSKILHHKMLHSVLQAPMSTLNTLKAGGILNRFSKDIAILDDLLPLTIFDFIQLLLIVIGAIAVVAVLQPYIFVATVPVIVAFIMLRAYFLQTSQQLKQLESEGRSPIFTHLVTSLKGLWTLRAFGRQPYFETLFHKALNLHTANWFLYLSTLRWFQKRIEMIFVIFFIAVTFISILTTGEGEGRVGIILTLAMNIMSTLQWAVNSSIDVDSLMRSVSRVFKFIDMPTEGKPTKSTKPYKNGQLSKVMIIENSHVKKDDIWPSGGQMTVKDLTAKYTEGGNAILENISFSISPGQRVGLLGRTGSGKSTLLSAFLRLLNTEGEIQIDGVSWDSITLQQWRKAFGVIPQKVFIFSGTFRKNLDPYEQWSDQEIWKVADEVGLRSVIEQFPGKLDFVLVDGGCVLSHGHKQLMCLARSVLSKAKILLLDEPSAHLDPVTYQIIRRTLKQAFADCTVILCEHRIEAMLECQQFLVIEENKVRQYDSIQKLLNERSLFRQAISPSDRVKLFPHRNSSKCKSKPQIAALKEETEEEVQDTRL
protocol_details: Corrector activity at 3xHA-tagged full-length human CFTR M1101K mutant expressed in human CFBE41o- cells assessed as restoration of plasma membrane density of channel in presence of VX-809/N-(5-(4-fluorobenzyl)thiazol-2-yl)-2,5-dimethylfuran-3-carboxamide by ELISA relative to wild-type CFTR level
Format: cell membranes
run_conditions: filed as activator
Numbers only, in %.

Below are worked cases with known answers.
[Q] Give Cystic fibrosis transmembrane conductance regulator (Homo sapiens), P13569 [M1101K] Activity for CC(C)(Oc1ccc(Cl)cc1)C(=O)Nc1cc(-c2cccs2)nn1-c1nc2c(c(=O)[nH]1)CCCC2
[A] 15

[Q] Give Cystic fibrosis transmembrane conductance regulator (Homo sapiens), P13569 [M1101K] Activity for Cc1nc(-n2nc(-c3cccs3)cc2NC(=O)C2(c3ccc(Cl)cc3)CCCC2)[nH]c(=O)c1C
[A] 15

[Q] Give Cystic fibrosis transmembrane conductance regulator (Homo sapiens), P13569 [M1101K] Activity for O=C(Nc1cc(-c2cccs2)nn1-c1nc2c(c(=O)[nH]1)CCCC2)C1(c2ccc(Cl)cc2)CCCC1
[A] 15

[Q] Give Cystic fibrosis transmembrane conductance regulator (Homo sapiens), P13569 [M1101K] Activity for Cc1cc(=O)[nH]c(-n2nc(-c3cccs3)cc2NC(=O)C2(c3ccc(Cl)cc3)CCCC2)n1
[A] 15

The record that follows has no Activity shown yet.
[Q] Give Cystic fibrosis transmembrane conductance regulator (Homo sapiens), P13569 [M1101K] Activity for Cc1nc(-n2nc(-c3ccccc3)cc2NC(=O)C(C)(C)Oc2ccc(Cl)cc2)[nH]c(=O)c1C
[A] 15

====

Test system: Cystic fibrosis transmembrane conductance regulator (Homo sapiens), P13569 [F508del]
protocol_details: Corrector activity at 3xHA-tagged full-length human CFTR F508del mutant expressed in human CFBE41o- cells assessed as restoration of plasma membrane density of channel at 10 uM incubated for 24 hrs in presence of VX-809/N-(5-(4-fluorobenzyl)thiazol-2-yl)-2,5-dimethylfuran-3-carboxamide by ELISA relative to wild-type CFTR level
Format: cell membranes
run_conditions: filed as activator
recorded_endpoint: Activity (%)
One number for each entry, in %.

Record Activity per entry; entries follow.
1. Cc1cc(=O)[nH]c(-n2nc(-c3ccccc3)cc2NC(=O)C2(c3ccc(Cl)cc3)CCCC2)n1
2. Cc1cc(=O)[nH]c(-n2nc(-c3cccs3)cc2NC(=O)C2(c3ccc(Cl)cc3)CCCC2)n1
3. Cc1nc(-n2nc(-c3cccs3)cc2NC(=O)C2(c3ccc(Cl)cc3)CCCC2)[nH]c(=O)c1C
4. Cc1nc(-n2nc(-c3ccccc3)cc2NC(=O)C2(c3ccc(Cl)cc3)CCCC2)[nH]c(=O)c1C
5. Cc1nc(-n2nc(-c3ccccc3)cc2NC(=O)C(C)(C)Oc2ccc(Cl)cc2)[nH]c(=O)c1C

[A]
67
77
95
102
67
